Measured values drawn from patent US20250195513A1 for this set.

Below is a list of entries, each paired with its recorded log10 of DC50 value.
Target: IRAK4 (Homo sapiens)
Construct: endogenous in cells; host or cells: Karpas299
Test: IRAK4 Degradation Assay (Karpas299, HTRF/TR-FRET)
Type: cell-based
Details: Karpas-299 cells, 24 h treatment; read-out: IRAK4 in Karpas-299 (24 h) DC50
measuredParameter: log10 of DC50 (log10 of the value in nM)

- compound: "Cc1nc(C2CCC(=O)NC2=O)ccc1N1CCC(N2CCN(C34CC(n5cc6cc(NC(=O)c7ccc8cc(C#N)cnn78)c(C(C)(C)O)cc6n5)(C3)C4)CC2)CC1 (stereo not shown)"
  measuredParameter: "log10 of DC50"
  value: 0.20
- compound: "C[C@@H]1CN([C@H]2C[C@@H](c3cc(F)c([C@H]4CCC(=O)NC4=O)c(F)c3)C2)CCN1[C@H]1CC[C@H](n2cc3cc(NC(=O)c4ccc5cc(C#N)cnn45)c(C(C)(C)O)cc3n2)CC1"
  measuredParameter: "log10 of DC50"
  value: 0.04
- compound: "Cc1nc(C2CCC(=O)NC2=O)ccc1N1CCC(N2CCN([C@H]3CC[C@H](n4cc5cc(NC(=O)c6ccc7cc(C#N)cnn67)c(C(C)(C)O)cc5n4)CC3)CC2)CC1 (stereo partly shown)"
  measuredParameter: "log10 of DC50"
  value: 0.36
- compound: "COc1cc2nn([C@H]3CC[C@H](CN4CCN(C(=O)C5CN(c6ccc(N7CCC(=O)NC7=O)cc6)C5)CC4)CC3)cc2cc1NC(=O)c1cccc(C(F)(F)F)n1"
  measuredParameter: "log10 of DC50"
  value: 1.15
- compound: "CC(C)(O)c1cc2nn(C3CCN([C@@H]4CCN(C5CCN(c6cc(F)c([C@H]7CCC(=O)NC7=O)c(F)c6)CC5)CC4(F)F)CC3)cc2cc1NC(=O)c1ccc2cc(C#N)cnn12"
  measuredParameter: "log10 of DC50"
  value: 0.18
- compound: "O=C1CCN(c2c(F)cc(N3CC(C(=O)N4CCN([C@H]5CC[C@H](n6cc(NC(=O)c7coc(-c8ccnc(NCC(F)(F)F)c8)n7)c(C(F)F)n6)CC5)CC4)C3)cc2F)C(=O)N1"
  measuredParameter: "log10 of DC50"
  value: 0.51
- compound: "CC(C)(O)c1cc2nn(C34CC(N5CCN(C(=O)C6CN(c7cc(F)c([C@H]8CCC(=O)NC8=O)c(F)c7)C6)CC5)(C3)C4)cc2cc1NC(=O)c1cccc(C(F)(F)F)n1"
  measuredParameter: "log10 of DC50"
  value: 0.20
- compound: "C[C@@H]1CN(C2CCN(c3cc(F)c([C@H]4CCC(=O)NC4=O)c(F)c3)CC2)CCN1[C@H]1CC[C@H](n2cc3cc(NC(=O)c4ccc5cc(C#N)cnn45)c(C(C)(C)O)cc3n2)CC1"
  measuredParameter: "log10 of DC50"
  value: -0.15
- compound: "CC(C)(O)c1cc2nn([C@H]3CC[C@H](N4CCN(C(=O)[C@@H]5CCN(c6cc(F)c(N7CCC(=O)NC7=O)c(F)c6)C5)CC4)CC3)cc2cc1NC(=O)c1ccc2cc(C#N)cnn12"
  measuredParameter: "log10 of DC50"
  value: 0.38
- compound: "C[C@H]1CN([C@H]2CC[C@H](n3cc4cc(NC(=O)c5ccc6cc(C#N)cnn56)c(C(C)(C)O)cc4n3)CC2)CCN1C(=O)C1CN(c2cc(F)c(N3CCC(=O)NC3=O)c(F)c2)C1"
  measuredParameter: "log10 of DC50"
  value: 0.38

###

Target: IRAK4 (Homo sapiens, UniProt Q9NWZ3)
Construct: endogenous in cells; host or cells: Karpas299
Sequence (Q9NWZ3 whole entry): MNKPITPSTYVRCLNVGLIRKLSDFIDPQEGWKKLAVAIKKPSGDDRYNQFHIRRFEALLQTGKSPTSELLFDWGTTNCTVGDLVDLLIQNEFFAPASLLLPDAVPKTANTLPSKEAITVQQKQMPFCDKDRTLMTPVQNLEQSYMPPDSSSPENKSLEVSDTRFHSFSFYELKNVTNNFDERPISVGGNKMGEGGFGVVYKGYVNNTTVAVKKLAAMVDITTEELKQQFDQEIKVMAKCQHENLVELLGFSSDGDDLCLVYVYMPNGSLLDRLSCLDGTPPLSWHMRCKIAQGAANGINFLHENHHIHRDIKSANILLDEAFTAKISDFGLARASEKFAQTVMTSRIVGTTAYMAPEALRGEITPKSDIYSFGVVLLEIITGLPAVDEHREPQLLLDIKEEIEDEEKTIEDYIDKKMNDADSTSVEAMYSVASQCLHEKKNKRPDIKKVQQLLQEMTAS
Experiment: IRAK4 Degradation Assay with Human Serum (Karpas299, HTRF/TR-FRET)
Format: cell-based
Conditions: Karpas-299 in human serum, 24 hrs treatment; read-out: IRAK4 degradtion with human serum assay Dmax (%)
measuredParameter: Dmax (%)

- compound: "CC(C)(O)c1cc2nn(C3CCC(N4C[C@@H]5CN(C6CCN(c7cc(F)c([C@H]8CCC(=O)NC8=O)c(F)c7)CC6)C[C@H]5C4)CC3)cc2cc1NC(=O)c1ccc2cc(C#N)cnn12 (some centres unmarked)"
  value: 93
- compound: "CC(C)(O)c1cc2nn([C@H]3CC[C@H](N4CCN(C5CN(c6cc(F)c([C@H]7CCC(=O)NC7=O)c(F)c6)C5)CC4=O)CC3)cc2cc1NC(=O)c1ccc2cc(C#N)cnn12"
  value: 99
- compound: "COC[C@H]1CN(C2CCN(c3ccc(C4CCC(=O)NC4=O)nc3C)CC2)CCN1[C@H]1CC[C@H](n2cc3cc(NC(=O)c4ccc5cc(C#N)cnn45)c(C(C)(C)O)cc3n2)CC1 (some centres unmarked)"
  value: 98
- compound: "CC(C)(O)c1cc2nn([C@H]3CC[C@H](N4CCN(C(=O)C5CN(c6cnc(C7CCC(=O)NC7=O)c(F)c6)C5)CC4)CC3)cc2cc1NC(=O)c1ccc2cc(C#N)cnn12 (some centres unmarked)"
  value: 98
- compound: "C[C@@H]1CN(C(=O)C2CN(c3cc(F)c(N4CCC(=O)NC4=O)c(F)c3)C2)CCN1[C@H]1CC[C@H](n2cc3cc(NC(=O)c4ccc5cc(C#N)cnn45)c(C(C)(C)O)cc3n2)CC1"
  value: 101

###

Below is a list of entries, each paired with its recorded Dmax value.
Molecular target: IRAK4 (Homo sapiens, UniProt Q9NWZ3)
Construct: endogenous in cells; host or cells: Karpas299
Test: IRAK4 Degradation Assay (Karpas299, HTRF/TR-FRET)
Assay type: cell-based
Conditions: Karpas-299 cells, 24 h treatment; maximum percentage of degradation; read-out: IRAK4 in Karpas-299 (24 h) Dmax (%)

- molecule: "O=C1CCN(c2c(F)cc(N3CC(C(=O)N4CCN([C@H]5CC[C@H](n6cc(NC(=O)c7cnn(-c8ccnc(NCC9CC9)c8)n7)c(C(F)F)n6)CC5)CC4)C3)cc2F)C(=O)N1 [Example 61]"
  Dmax (%): 96
- molecule: "COC[C@@H]1CN(C2CCN(c3ccc(C4CCC(=O)NC4=O)nc3C)CC2)CCN1[C@H]1CC[C@H](n2cc3cc(NC(=O)c4ccc5cc(C#N)cnn45)c(C(C)(C)O)cc3n2)CC1 (some centres unmarked) [Example 423]"
  Dmax (%): 98
- molecule: "CC(C)(O)c1cc2nn([C@H]3CC[C@H](N4CCN(C(=O)C5CCN(c6cc(F)c([C@H]7CCC(=O)NC7=O)c(F)c6)CC5)CC4)CC3)cc2cc1NC(=O)c1ccc2cc(C#N)cnn12 [Example 291]"
  Dmax (%): 97
- molecule: "CC(C)(O)c1cc2nn([C@H]3CC[C@H](N4CCN(C5CCN(c6cc(F)c([C@H]7CCC(=O)NC7=O)c(F)c6)CC5)CC4)CC3)cc2cc1NC(=O)c1coc2cccnc12 [Example 405]"
  Dmax (%): 96
- molecule: "[2H]C([2H])([2H])Oc1cc2nn([C@H]3CC[C@H](N4CCN(C(=O)[C@@H]5CCN(c6cc(F)c([C@H]7CCC(=O)NC7=O)c(F)c6)C5)CC4)CC3)cc2cc1NC(=O)c1cccc(C(F)(F)F)n1 [Example 169]"
  Dmax (%): 99

###

Molecular target: IRAK4 (Homo sapiens, UniProt Q9NWZ3)
Construct: endogenous in cells; host or cells: Karpas299
Experiment: IRAK4 Degradation Assay (Karpas299, HTRF/TR-FRET)
Format: cell-based
Conditions: Karpas-299 cells, 24 h treatment; maximum percentage of degradation; read-out: IRAK4 in Karpas-299 (24 h) Dmax (%)

- cpdSmiles: "COC[C@@H]1CN([C@H]2CC[C@H](n3cc4cc(NC(=O)c5ccc6cc(C#N)cnn56)c(C(C)(C)O)cc4n3)CC2)CCN1C(=O)C1CN(c2cc(F)c(N3CCC(=O)NC3=O)c(F)c2)C1"
  targetSystem: "IRAK4 (Homo sapiens, UniProt Q9NWZ3)"
  Dmax: "98%"
- cpdSmiles: "CC(C)(O)c1cc2nn([C@H]3CC[C@H](N4CCN([C@H]5C[C@H](c6cc(F)c([C@H]7CCC(=O)NC7=O)c(F)c6)C5)CC4)CC3)cc2cc1NC(=O)c1ccc2cc(C#N)cnn12"
  targetSystem: "IRAK4 (Homo sapiens, UniProt Q9NWZ3)"
  Dmax: "96%"
- cpdSmiles: "COC[C@H]1CN([C@H]2CC[C@H](n3cc4cc(NC(=O)c5ccc6cc(C#N)cnn56)c(C(C)(C)O)cc4n3)CC2)CCN1CC1CN(c2cc(F)c([C@H]3CCC(=O)NC3=O)c(F)c2)C1"
  targetSystem: "IRAK4 (Homo sapiens, UniProt Q9NWZ3)"
  Dmax: "99%"
- cpdSmiles: "CC(C)(O)c1cc2nn([C@H]3CC[C@H](N4CCN(C(=O)[C@@H]5CCN(c6cc(F)c([C@H]7CCC(=O)NC7=O)c(F)c6)C5)CC4)CC3)cc2cc1NC(=O)c1cccn(C2CC2)c1=O"
  targetSystem: "IRAK4 (Homo sapiens, UniProt Q9NWZ3)"
  Dmax: "90%"
- cpdSmiles: "COC[C@@H]1CN([C@H]2CC[C@H](n3cc4cc(NC(=O)c5ccc6cc(C#N)cnn56)c(C(C)(C)O)cc4n3)CC2)CCN1C(=O)C1CN(c2cc(F)c([C@H]3CCC(=O)NC3=O)c(F)c2)C1"
  targetSystem: "IRAK4 (Homo sapiens, UniProt Q9NWZ3)"
  Dmax: "99%"
